- Tested on: H1299 cells
- assay-protocol: Anti-proliferative effect by Cell Titer-Glo, H1299
- Format: cell-based
- details: Homo sapiens, NCI-H1299, 72 h; H1299 cells, 3 days, Cell Titer-Glo; read-out: IC50 measured value H1299
Measured IC50 accompanies every entry in the list below.

molecule="Cc1cc(Nc2ncc3cnn(-c4cccc(N=S(C)(C)=O)n4)c3n2)ccc1N1CCC(N(C)C)CC1 [Compound 14]" value_type=IC50 value_measured="100 to 1000 nM"

Given item CN1CCN(c2ccc(Nc3ncc4cnn(-c5cncc(N=S(C)(C)=O)c5)c4n3)cc2)CC1 [Compound 31] , the value recorded as its IC50 is 1000 to 5000 nM

IC50 recorded for this molecule, CN1CCc2ccc(Nc3ncc4cnn(-c5cccc(N=S(C)(C)=O)n5)c4n3)cc2C1 [Compound 8] , is 1000 to 5000 nM

The molecule identified as CN1CCN(c2ccc(Nc3ncc4cnn(-c5ccc6c(c5)C(C)(O)CO6)c4n3)cc2)CC1 (stereo not shown) [Compound 40] registered its IC50 at 100 to 1000 nM

Lab note: measured IC50 of CN1CCN(c2ccc(Nc3ncc4cnn(-c5ccc6c(c5)C(=O)NCC6)c4n3)cc2)CC1 [Compound 38] was 100 to 1000 nM

# IC50 of CN1CCN(c2ccc(Nc3ncc4c(C(F)(F)F)nn(-c5cccc(C(C)(C)O)c5)c4n3)cc2)CC1 [Compound 35] = 5000 to 20000 nM

Summary for this molecule, C=CCn1c(=O)c2cnc(Nc3ccc(N4CCN(C)CC4)cc3)nc2n1-c1cccc(C(C)(C)O)n1 [AZD-1775, reference compound] : IC50 is 100 to 1000 nM

====

- assay-protocol: Plasma protein binding (PPB), mouse
- Type: in vitro ADME
- details: 5 h dialysis, read-out: Plasma protein binding rate (%) Mouse (converted)
value-type: fraction unbound at 5 h, 1 µM

compound=CN1CCN(c2ccc(Nc3ncc4cnn(-c5cccc(N=S(C)(C)=O)n5)c4n3)cc2)CC1 value_measured=0.226
compound=Cc1cc(Nc2ncc3cnn(-c4cccc(N=S(C)(C)=O)n4)c3n2)ccc1N1CCN(C)CC1 value_measured=0.092

[a] C=CCn1c(=O)c2cnc(Nc3ccc(N4CCN(C)CC4)cc3)nc2n1-c1cccc(C(C)(C)O)n1 [AZD-1775, reference compound]
[b] Cc1cc(Nc2ncc3cnn(-c4cccc(N=S(C)(C)=O)n4)c3n2)ccc1N1CCC(N(C)C)CC1
[in] Which numeric fraction unbound at 5 h, 1 µM is bigger, that of a or that of b ? Answer = label.
[out] b

====

- system-under-test: UniProt:P10635
- Sequence (P10635 whole entry): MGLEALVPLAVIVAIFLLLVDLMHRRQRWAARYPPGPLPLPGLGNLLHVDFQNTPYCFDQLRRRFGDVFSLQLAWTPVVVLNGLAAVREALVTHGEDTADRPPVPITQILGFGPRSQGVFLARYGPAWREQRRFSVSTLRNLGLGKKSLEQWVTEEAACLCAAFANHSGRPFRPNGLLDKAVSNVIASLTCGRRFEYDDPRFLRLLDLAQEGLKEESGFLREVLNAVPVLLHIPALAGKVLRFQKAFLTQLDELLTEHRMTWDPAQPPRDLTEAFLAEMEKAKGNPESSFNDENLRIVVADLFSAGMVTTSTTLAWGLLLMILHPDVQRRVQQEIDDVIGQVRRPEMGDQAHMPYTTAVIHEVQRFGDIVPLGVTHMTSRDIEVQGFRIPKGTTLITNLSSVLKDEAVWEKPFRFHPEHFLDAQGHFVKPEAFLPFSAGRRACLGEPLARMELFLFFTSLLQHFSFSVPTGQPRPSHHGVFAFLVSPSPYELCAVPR
- assay-protocol: Inhibition of cytochrome P450, CYP2D6
- Type: in vitro ADME
- details: CYP2D6 enzyme, pH 7.4, probe EOMCC, compound concentration 10 μM, read-out: CYP inhibition/% 2D6
value-type: inhibition at 30 min, 10 µM (%)

entry_smiles=CN1CCN(c2ccc(Nc3ncc4cnn(-c5cccc(N=S(C)(C)=O)n5)c4n3)cc2)CC1 system_under_test=UniProt:P10635 value_type="inhibition at 30 min, 10 µM" value_measured=2

[P] CN1CCN(c2ccc(Nc3ncc4cnn(-c5cccc(C(C)(C)O)n5)c4n3)cc2)CC1
[Q] CS(C)(=O)=Nc1cccc(-n2ncc3cnc(Nc4ccc(N5CCOCC5)cc4)nc32)n1
[in] Between the entries labeled P and Q , whose measured inhibition at 30 min, 10 µM is lower? Answer format: the label of the selected item.
[out] Q

====

- system-under-test: CYP2B6 (Homo sapiens)
- Sequence (P20813 whole entry): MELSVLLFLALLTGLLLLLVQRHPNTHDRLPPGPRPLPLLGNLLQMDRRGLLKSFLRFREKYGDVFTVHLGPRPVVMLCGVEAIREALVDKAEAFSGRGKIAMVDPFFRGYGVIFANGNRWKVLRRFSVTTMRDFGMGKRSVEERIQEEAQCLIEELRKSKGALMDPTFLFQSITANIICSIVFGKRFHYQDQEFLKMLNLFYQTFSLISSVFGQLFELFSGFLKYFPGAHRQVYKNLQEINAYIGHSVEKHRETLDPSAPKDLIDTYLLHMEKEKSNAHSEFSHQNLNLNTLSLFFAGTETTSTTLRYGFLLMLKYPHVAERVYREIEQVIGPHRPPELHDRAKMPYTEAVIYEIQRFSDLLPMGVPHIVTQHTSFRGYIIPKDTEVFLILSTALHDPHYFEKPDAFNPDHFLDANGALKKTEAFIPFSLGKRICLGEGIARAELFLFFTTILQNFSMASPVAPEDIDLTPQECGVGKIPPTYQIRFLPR
- assay-protocol: Inhibition of cytochrome P450, 2B6
- Format: in vitro ADME
- details: CYP2B6 enzyme, pH 7.4, compound concentration 10 μM, read-out: CYP inhibition/% 2B6
value-type: inhibition at 30 min, 10 µM (%)
Unit % implied. Number only.

Given item CN1CCN(c2ccc(Nc3ncc4cnn(-c5cccc(N=S(C)(C)=O)n5)c4n3)cc2)CC1 , the value recorded as its inhibition at 30 min, 10 µM is 4.38

====

- assay-protocol: Compound pharmacokinetics in mice
- Format: in vivo
- details: mouse; male ICR mice, oral gavage 10 mg/kg, plasma
value-type: Cmax (ng/mL)

compound="CN1CCN(c2ccc(Nc3ncc4cnn(-c5cccc(N=S(C)(C)=O)n5)c4n3)cc2)CC1 [Compound 1]" value_measured=169
compound="CN1CCN(c2ccc(Nc3ncc4cnn(-c5ccnc(N=S(C)(C)=O)c5)c4n3)cc2)CC1 [Compound 28]" value_measured=337
compound="CN1CCN(c2ccc(Nc3ncc4cnn(-c5ccc6c(c5)C(C)(O)CO6)c4n3)cc2)CC1 (stereo not shown) [Compound 40]" value_measured=377
compound="C=CCn1c(=O)c2cnc(Nc3ccc(N4CCN(C)CC4)cc3)nc2n1-c1cccc(C(C)(C)O)n1 [AZD-1775, reference compound]" value_measured=445

====

- assay-protocol: Metabolic stability of liver microsomes in vitro (mouse)
- Type: in vitro ADME
- details: read-out: Mouse T1/2/min
value-type: half-life at 1 µM (min)

Example cases with answers are listed next.
compound=CN1CCN(c2ccc(Nc3ncc4cnn(-c5cccc(C(C)(C)O)n5)c4n3)cc2)CC1 value_measured=15.6
compound=Cc1cc(Nc2ncc3cnn(-c4cccc(N=S(C)(C)=O)n4)c3n2)ccc1N1CCC(N(C)C)CC1 value_measured=67.3
compound=CN1CCN(c2ccc(Nc3ncc4cnn(-c5cccc(N=S(C)(C)=O)n5)c4n3)cc2)CC1 value_measured=60.3
compound=Cc1cc(Nc2ncc3cnn(-c4cccc(N=S(C)(C)=O)n4)c3n2)ccc1N1CCN(C)CC1 value_measured=8.9
compound="CN1CCN(c2ccc(Nc3ncc4cnn(-c5ccc6c(c5)C(C)(O)CO6)c4n3)cc2)CC1 (centres unmarked)" value_measured=20.4

[a] CCn1cnc2ccc(-n3ncc4cnc(Nc5ccc(N6CCN(C)CC6)cc5)nc43)cc21
[b] C=CCn1c(=O)c2cnc(Nc3ccc(N4CCN(C)CC4)cc3)nc2n1-c1cccc(C(C)(C)O)n1 [AZD-1775, reference compound]
[in] Of the two listed items, a and b , which carries the larger half-life at 1 µM figure? The response must carry the label of the picked entry.
[out] b

====

- system-under-test: CYP2C19 (Homo sapiens, UniProt P33261)
- Sequence (P33261 whole entry): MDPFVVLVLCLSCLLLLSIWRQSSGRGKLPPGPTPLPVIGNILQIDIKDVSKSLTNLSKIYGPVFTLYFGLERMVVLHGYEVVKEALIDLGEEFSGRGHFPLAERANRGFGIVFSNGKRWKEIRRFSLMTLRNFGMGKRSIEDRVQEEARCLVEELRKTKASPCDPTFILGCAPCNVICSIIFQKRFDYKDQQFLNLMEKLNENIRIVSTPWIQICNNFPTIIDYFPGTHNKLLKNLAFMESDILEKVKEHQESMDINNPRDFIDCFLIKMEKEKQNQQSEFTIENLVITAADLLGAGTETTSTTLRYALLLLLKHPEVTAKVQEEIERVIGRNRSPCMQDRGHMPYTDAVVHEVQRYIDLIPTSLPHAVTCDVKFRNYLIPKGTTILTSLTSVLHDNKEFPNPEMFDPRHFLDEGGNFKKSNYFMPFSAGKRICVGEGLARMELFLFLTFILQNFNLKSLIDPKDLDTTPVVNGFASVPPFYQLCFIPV
- assay-protocol: Inhibition of cytochrome P450, CYP2C19
- Format: in vitro ADME
- details: CYP2C19 enzyme, pH 7.4, probe EOMCC, compound concentration 10 μM, read-out: CYP inhibition/% 2C19
value-type: inhibition at 30 min, 10 µM (%)

entry_smiles=CN1CCN(c2ccc(Nc3ncc4cnn(-c5cccc(N=S(C)(C)=O)n5)c4n3)cc2)CC1 value_type="inhibition at 30 min, 10 µM" reading_unit=% value_measured=10.7

[P] CN1CCN(c2ccc(Nc3ncc4cnn(-c5cccc(C(C)(C)O)n5)c4n3)cc2)CC1
[Q] CS(C)(=O)=Nc1cccc(-n2ncc3cnc(Nc4ccc(N5CCOCC5)cc4)nc32)n1
[in] Just tell me: smaller inhibition at 30 min, 10 µM value, P or Q ? Answer = label.
[out] Q
(Q: -8.3%, P: 9.8%)

====

- assay-protocol: Membrane permeability study (Caco-2)
- Type: in vitro ADME
- details: human, pH 7.4; Caco-2, 10 μM, 90 min, B to A
value-type: Papp B→A at 90 min, 10 µM (×10⁻⁶ cm/s)

Reference set (4 entries):
compound="C=CCn1c(=O)c2cnc(Nc3ccc(N4CCN(C)CC4)cc3)nc2n1-c1cccc(C(C)(C)O)n1 [AZD-1775, reference compound]" value_type="Papp B→A at 90 min, 10 µM" value_measured=35.3
compound="CN1CCN(c2ccc(Nc3ncc4cnn(-c5ccc6c(c5)C(C)(O)CO6)c4n3)cc2)CC1 (stereo not drawn)" value_type="Papp B→A at 90 min, 10 µM" value_measured=16.6
compound=CN1CCN(c2ccc(Nc3ncc4cnn(-c5cccc(N=S(C)(C)=O)n5)c4n3)cc2)CC1 value_type="Papp B→A at 90 min, 10 µM" value_measured=41.7
compound=Cc1cc(Nc2ncc3cnn(-c4cccc(N=S(C)(C)=O)n4)c3n2)ccc1N1CCN(C)CC1 value_type="Papp B→A at 90 min, 10 µM" value_measured=20.3

[P] CCn1cnc2ccc(-n3ncc4cnc(Nc5ccc(N6CCN(C)CC6)cc5)nc43)cc21
[Q] Cc1cc(Nc2ncc3cnn(-c4cccc(N=S(C)(C)=O)n4)c3n2)ccc1N1CCC(N(C)C)CC1
[in] // max by Papp B→A at 90 min, 10 µM over [ P , Q ] # answer = label of selected item
[out] Q

====

Known pIC50 of a selection of compounds
- system-under-test: Wee1 protein (Homo sapiens)
- Sequence (P30291 whole entry): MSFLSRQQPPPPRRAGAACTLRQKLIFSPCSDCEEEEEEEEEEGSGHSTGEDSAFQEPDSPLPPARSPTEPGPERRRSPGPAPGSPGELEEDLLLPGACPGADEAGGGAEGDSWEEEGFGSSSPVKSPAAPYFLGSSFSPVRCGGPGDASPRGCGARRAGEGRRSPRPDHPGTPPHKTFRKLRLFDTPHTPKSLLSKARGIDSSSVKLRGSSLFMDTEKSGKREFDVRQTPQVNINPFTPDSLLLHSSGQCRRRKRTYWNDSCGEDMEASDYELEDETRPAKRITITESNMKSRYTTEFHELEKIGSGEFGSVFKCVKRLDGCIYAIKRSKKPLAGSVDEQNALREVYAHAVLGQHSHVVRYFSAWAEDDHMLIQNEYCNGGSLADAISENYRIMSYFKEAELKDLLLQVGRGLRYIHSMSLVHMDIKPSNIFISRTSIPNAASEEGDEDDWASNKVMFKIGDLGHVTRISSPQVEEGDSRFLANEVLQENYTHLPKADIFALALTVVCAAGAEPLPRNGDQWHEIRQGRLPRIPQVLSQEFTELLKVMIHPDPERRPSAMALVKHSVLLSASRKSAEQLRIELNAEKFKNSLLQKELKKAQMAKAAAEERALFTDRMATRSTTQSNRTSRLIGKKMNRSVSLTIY
pIC50: −log10 of the molar value.

compound=CN1CCN(c2ccc(Nc3ncc4cnn(-c5cccc(N=S(C)(C)=O)c5)c4n3)nc2)CC1 value_measured="6.00 to 7.00"

Reported Wee1 protein (Homo sapiens) pIC50 for item CN1CCN(c2ccc(Nc3ncc4cnn(-c5cccc(N=S(C)(C)=O)n5)c4n3)cc2F)CC1 was 7.00 to 8.00

Record CCC1(O)CCc2ccc(-n3ncc4cnc(Nc5ccc(N6CCN(C)CC6)cc5)nc43)nc21 (centres unmarked) ; system Wee1 protein (Homo sapiens); pIC50 = 6.00 to 7.00

# value of pIC50, Wee1 protein (Homo sapiens), item CCn1cnc2ccc(-n3ncc4cnc(Nc5ccc(N6CCN(C)CC6)cc5)nc43)cc21 = 7.00 to 8.00

Wee1 protein (Homo sapiens) data for CN1CCN(c2ccc(Nc3ncc4c(C(F)(F)F)nn(-c5cccc(N=S(C)(C)=O)n5)c4n3)cc2)CC1 ; its pIC50: 7.00 to 8.00

Measured pIC50 for this entry CCN1C(=O)COc2ccc(-n3ncc4cnc(Nc5ccc(N6CCN(C)CC6)cc5)nc43)cc21 on Wee1 protein (Homo sapiens): 7.00 to 8.00

Entry CN1CCN(c2ccc(Nc3ncc4cnn(-c5cccc(N=S(C)(C)=O)c5)c4n3)cc2)CC1 , tested on Wee1 protein (Homo sapiens), has a reported pIC50 of 7.00 to 8.00

Reported pIC50 (Wee1 protein (Homo sapiens)) for entry CN1CCN(c2ccc(Nc3ncc4cnn(-c5cccc(C6(C#N)CC6)n5)c4n3)cc2)CC1 is 7.00 to 8.00
